molecular target: UniProt:P31645; test: Modulation of human SERT expressed in HEK293 cells at 1 uM using APP+ as substrate by fluorescence assay relative to control; format: cell-based
Sequence (P31645 whole entry, looked up): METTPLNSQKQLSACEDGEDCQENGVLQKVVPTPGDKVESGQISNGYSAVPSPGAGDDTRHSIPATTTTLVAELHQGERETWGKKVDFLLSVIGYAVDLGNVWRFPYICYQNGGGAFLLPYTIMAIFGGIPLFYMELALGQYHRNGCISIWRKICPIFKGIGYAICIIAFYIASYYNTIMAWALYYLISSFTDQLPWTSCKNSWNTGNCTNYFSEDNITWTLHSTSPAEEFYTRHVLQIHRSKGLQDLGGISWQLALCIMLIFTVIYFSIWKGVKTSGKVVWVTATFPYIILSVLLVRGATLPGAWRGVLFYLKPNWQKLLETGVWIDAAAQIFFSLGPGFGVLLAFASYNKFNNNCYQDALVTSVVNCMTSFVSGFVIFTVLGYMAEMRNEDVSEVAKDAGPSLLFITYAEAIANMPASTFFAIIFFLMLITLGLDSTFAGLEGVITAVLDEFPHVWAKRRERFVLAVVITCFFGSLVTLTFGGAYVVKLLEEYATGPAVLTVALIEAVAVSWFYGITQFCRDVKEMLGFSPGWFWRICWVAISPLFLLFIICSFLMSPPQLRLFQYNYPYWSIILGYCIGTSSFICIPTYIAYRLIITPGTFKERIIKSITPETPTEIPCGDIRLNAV
Parameter: fold change (FC). Scope: all listed entries.
Could you respond with only the numeric value?

Use these answered entries as a reference point.
molecule | fold change (FC)
CC(=O)/C=C/C1=C(C)CCCC1(C)C | 1.07
COC1=CC(C)(C)c2cc(OC)c(C)c(OC)c2C1=O | 1.05
CC(C)CC(=O)O[C@@H]1OC=C(CO[C@@H]2O[C@H](CO)[C@@H](O)[C@H](O)[C@H]2O)C2C[C@H](O)[C@@H](CO)C21 (stereo partly specified) | 0.981
C/C1=C\CC[C@@H](C)CCO[C@@H]2O[C@H](CO[C@@H]3OC[C@](O)(COC1=O)[C@H]3O)[C@@H](O)[C@H](O)[C@H]2O | 1.08
CC1=CC(=O)CC(C)(C)[C@@H]1CC[C@@H](C)OC(=O)CC(C)C | 1.05
CN1c2ccccc2C(NCCCCCCC(=O)O)c2ccc(Cl)cc2S1(=O)=O (stereo unspecified) | 1.18
C[C@H]1CC[C@@H]2C(C(=O)O)=CO[C@@H](O[C@@H]3O[C@H](CO)[C@@H](O)[C@H](O)[C@H]3O)[C@H]21 | 1.08
COC(=O)C1=CO[C@@H](O[C@@H]2O[C@H](CO)[C@@H](O)[C@H](O)[C@H]2O)[C@H]2[C@@H](COC(C)=O)CC[C@H]12 | 1.07

Query CC(=O)CC/C=C(C)/C=C/[C@H]1C(C)=CC(=O)CC1(C)C yields fold change (FC) of 1.07

Query COC1=CC(C)(C)c2cc(OC)c(C)cc2C1=O yields fold change (FC) of 1

Query CC(=O)/C=C/C1(O)C(C)(C)CCCC1(C)O (stereo unspecified) yields fold change (FC) of 1.07
